- TEST TARGET: isolated kinase domain of the human FLT3 receptor (a.a. 571-993) (Homo sapiens)
- Construct: isolated kinase domain of the human FLT3 receptor (a.a. 571-993)
- Sequence (P36888 571-993): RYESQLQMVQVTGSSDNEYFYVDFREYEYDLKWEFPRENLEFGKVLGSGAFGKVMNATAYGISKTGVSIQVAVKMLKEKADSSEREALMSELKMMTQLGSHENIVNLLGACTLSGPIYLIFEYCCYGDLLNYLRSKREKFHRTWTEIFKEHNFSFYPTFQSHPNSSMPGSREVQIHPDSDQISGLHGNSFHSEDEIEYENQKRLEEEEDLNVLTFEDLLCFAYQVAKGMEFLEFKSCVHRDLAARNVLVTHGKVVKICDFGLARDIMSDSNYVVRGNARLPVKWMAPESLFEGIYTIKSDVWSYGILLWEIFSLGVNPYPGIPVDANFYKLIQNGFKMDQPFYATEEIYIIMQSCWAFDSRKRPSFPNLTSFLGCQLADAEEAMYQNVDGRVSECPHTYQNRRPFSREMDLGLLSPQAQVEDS
- TEST PROTOCOL: FLT3 Fluorescence Polarization Kinase Assay
- PARTICULARS: 10 nM FLT3 571-993, 150 uM ATP; uncertainty ±10%
IC50 vs 300 nM: less than gives YES; not less than gives NO.

>  <MOLECULE>
CO/N=C/c1c(N)ncnc1N1CCC(NC(=O)Nc2ccc(N3CCCC3)cc2)CC1

>  <TEST TARGET>
isolated kinase domain of the human FLT3 receptor (a.a. 571-993) (Homo sapiens)

>  <ANSWER LABEL>
YES

$$$$

input: Please check: IC50 for CC(C)c1ccc(NC(=O)NC2CCN(c3ncnc(N)c3/C=N/OCC(=O)N3CCOCC3)C2)cc1 (centres unmarked) , strictly under 300 nM or not?
output: NO

input: Please check: IC50 for CO/N=C/c1c(N)ncnc1N1CCC(NC(=O)Nc2ccc(N3CCCCC3)cc2)CC1 , strictly under 300 nM or not?
output: NO

input: Please check: IC50 for CCO/N=C/c1c(N)ncnc1N1CCC(OC(=O)Nc2ccc(OC(C)C)cc2)CC1 , strictly under 300 nM or not?
output: YES
